- Procedure Details: gradient 5% acetonitrile 3 min, to 50% in 2 min, to 85% in 15 min, held 3 min, 100 µL/min
- Measurement Conditions: column: Zorbax Extend-C18 2.1 x 50 mm; eluents: water / acetonitrile, 0.1% formic acid
Quantity Kind: RP-LC retention time (s)

CCOc1ccc(-c2cc3n(n2)CCCN(C(=O)c2cc(C)n(C)n2)C3)cc1 ... 698
Cn1c(C2CCN(S(=O)(=O)c3ccccc3Cl)CC2)cc(=O)n2nccc12 ... 708
CCc1cc(=O)n(CC(=O)Nc2ccc(Br)cc2F)c(N2CCOCC2)n1 ... 853
CCc1nc2cc(-c3noc(Cc4ccc(Cl)cc4)n3)ccc2o1 ... 1140

1: CC(NC(=O)c1cccs1)C(=O)Nc1nc2ccccc2[nH]1 (centres undefined)
2: Cn1nc(C(=O)Nc2ccccc2)c2c1CCN(C(=O)Nc1ccccc1Br)C2
*Q* // task: argmin of RP-LC retention time over [ 1 , 2 ] Field: selected label. Fill in the label of the entry you choose.
*A* 1
(1: 612 s, 2: 903 s)

----------
- Procedure Details: gradient 5% acetonitrile 3 min, to 50% in 2 min, to 85% in 15 min, held 3 min, 100 µL/min
- Measurement Conditions: column: Zorbax Extend-C18 2.1 x 50 mm; eluents: water / acetonitrile, 0.1% formic acid
Quantity Kind: RP-LC retention time (s)

Cc1ccc(N2CC(NC(=O)Nc3ncccc3C)CC2=O)cc1 (stereo not given) ... 573
CC1(C)CC2(CCO1)OC(=O)CC2C(=O)Nc1ccccc1Cl (stereo not given) ... 753
O=C(C1=CN(c2ccc3c(c2)OCCO3)c2cc(F)ccc2S1(=O)=O)N1CCCC1 ... 735
Cc1ccc(NC(=O)Nc2ccc3nnc(C)n3c2)cc1 ... 673
COc1ccc(N2CCN(C(=O)c3c(C)oc4nc(C)nc(N5CCCC5)c34)CC2)cc1 ... 694

I: Cc1ccc(-c2ccc(=O)n(C(C)C(=O)O)n2)cc1 (stereo not given)
II: c1ccc(CCc2nc3nccc(-c4ccc5c(c4)OCCCO5)n3n2)cc1
*Q* Given I and II , report the one with the higher recorded RP-LC retention time. Field: selected label. Fill in the label of the entry you choose.
*A* II

A: Cc1ccc2[nH]cc(NC(=O)NCCN(C)C)c(=O)c2c1
B: Cc1ccc(C)c(-c2csc(NC(=O)COc3ccccc3)n2)c1
*Q* Given A and B , report the one with the higher recorded RP-LC retention time. Field: selected label. Fill in the label of the entry you choose.
*A* B
(B: 1150 s, A: 563 s)

----------
- Procedure Details: gradient 5% acetonitrile 3 min, to 50% in 2 min, to 85% in 15 min, held 3 min, 100 µL/min
- Measurement Conditions: column: Zorbax Extend-C18 2.1 x 50 mm; eluents: water / acetonitrile, 0.1% formic acid
Quantity Kind: RP-LC retention time (s)

CCOC1CCOC2(CCN(C(=O)c3ccoc3)CC2)C1 (stereo not given) ... 686
COc1ccc(S(=O)(=O)N2CC3CN(C(=O)CC(C)C)CC(C2)O3)cc1 ... 759
Cc1c(C(=O)NC2CC2)cc(-c2ccc(F)cc2)n1C ... 830
COc1cc([C@@H]2c3cc4c(cc3[C@H](O)[C@@H](CO)[C@@H]2C(=O)NC2CCCCC2)OCO4)cc(OC)c1OC ... 736
O=C(Cn1c(=O)c2cc(-c3ccco3)nn2c2ncccc21)Nc1ccc(F)c(F)c1 ... 843
